// provenance: ChEMBL document CHEMBL3232909

pIC50: −log10 of the molar value.
Let's go through some pIC50 measurements on Carbonic anhydrase 2 (Homo sapiens) together.
measuredMetric: pIC50

compound | result
O=[N+]([O-])c1cc(NC(P(=O)(O)O)P(=O)(O)O)ccc1F | < 5.00
O=P(O)(O)C(Nc1ccc(Oc2ccccc2)cc1)P(=O)(O)O | < 5.00
O=[N+]([O-])c1cccc(NC(P(=O)(O)O)P(=O)(O)O)c1 | < 5.00
O=P(O)(O)C(Nc1ccc(Oc2ccc(Br)cc2)cc1)P(=O)(O)O | 5.13
O=P(O)(O)C(Nc1ccc(-c2ccccc2)cc1)P(=O)(O)O | < 5.00
O=P(O)(O)C(Nc1ccc(C(F)(F)F)cc1)P(=O)(O)O | < 5.00
Cc1ccc(NC(P(=O)(O)O)P(=O)(O)O)cc1 [(P-TOLYLAMINO)METHYLENEDIPHOSPHONIC ACID] | < 5.00
O=P(O)(O)C(Nc1ccc(Cl)c(Cl)c1)P(=O)(O)O | < 5.00
O=P(O)(O)C(Nc1ccc(Cl)cc1Cl)P(=O)(O)O | < 5.00
O=P(O)(O)C(Nc1cccc2ccccc12)P(=O)(O)O | 5.04
O=P(O)(O)C(Nc1cccc(-c2ccccc2)c1)P(=O)(O)O | 5.03
O=P(O)(O)C(Nc1ccc(O)cc1)P(=O)(O)O | 5.09
O=P(O)(O)C(O)(Cn1ccnc1)P(=O)(O)O [ZOLEDRONIC ACID] | 7.21
O=P(O)(O)C(Nc1ccccc1)P(=O)(O)O [(PHENYLAMINO)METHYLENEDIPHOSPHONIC ACID] | < 5.00

----------
This section lists IC50 readings for Carbonic anhydrase 12 (Homo sapiens, UniProt O43570).

mol | measuredOn | IC50
O=P(O)(O)C(Nc1ccc(Oc2ccccc2)cc1)P(=O)(O)O | Carbonic anhydrase 12 (Homo sapiens, UniProt O43570) | > 10 µM
O=P(O)(O)C(Nc1ccc(Cl)cc1Cl)P(=O)(O)O | Carbonic anhydrase 12 (Homo sapiens, UniProt O43570) | > 10 µM
O=P(O)(O)C(Nc1ccc(Cl)c(Cl)c1)P(=O)(O)O | Carbonic anhydrase 12 (Homo sapiens, UniProt O43570) | > 10 µM
O=P(O)(O)C(Nc1ccc(-c2ccccc2)cc1)P(=O)(O)O | Carbonic anhydrase 12 (Homo sapiens, UniProt O43570) | > 10 µM
O=P(O)(O)C(Nc1ccc(Oc2ccc(Br)cc2)cc1)P(=O)(O)O | Carbonic anhydrase 12 (Homo sapiens, UniProt O43570) | > 10 µM
O=P(O)(O)C(Nc1ccccc1)P(=O)(O)O | Carbonic anhydrase 12 (Homo sapiens, UniProt O43570) | 0.437 µM
O=[N+]([O-])c1cc(NC(P(=O)(O)O)P(=O)(O)O)ccc1F | Carbonic anhydrase 12 (Homo sapiens, UniProt O43570) | > 10 µM
O=P(O)(O)C(Nc1cccc(F)c1)P(=O)(O)O | Carbonic anhydrase 12 (Homo sapiens, UniProt O43570) | 8.69 µM
O=P(O)(O)C(Nc1ccc(Br)cc1)P(=O)(O)O | Carbonic anhydrase 12 (Homo sapiens, UniProt O43570) | 0.239 µM
